Experiment: stimulators of insulin release from INS-1E, primary screen, cell-based, 5 mM glucose, NPC library (AID 1117329); also: reference of the scale not given here
Conditions: rat INS-1E insulin secretion, at 10 µM, stronger effect = higher value
The source made the active and inactive calls.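 The calls were made as follows: active = compound raises insulin release from rat beta cells at 5 mM glucose, no numeric limit stated; inactive = the rest.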
Answer each item with its documented insulin secretion stimulation.

Return insulin secretion stimulation (reported value) for this compound: C[C@@H](O[C@H]1OCCN(Cc2n[nH]c(=O)[nH]2)[C@H]1c1ccc(F)cc1)c1cc(C(F)(F)F)cc(C(F)(F)F)c1 1.6% (inactive)

Return insulin secretion stimulation (reported value) for this compound: NC(=O)c1ncn([C@@H]2O[C@H](CO)[C@@H](O)[C@H]2O)c1N -2.3% (inactive)

Return insulin secretion stimulation (reported value) for this compound: CC(=O)N[C@@H](CCC(N)=O)C(=O)O 2.8% (inactive)

Return insulin secretion stimulation (reported value) for this compound: O=C(O)C(S)C(S)C(=O)O (stereo unspecified) 1.3% (inactive)

Return insulin secretion stimulation (reported value) for this compound: COC(c1ccccc1)(c1ccccc1)[C@H](Oc1nc(C)cc(C)n1)C(=O)O 4.3% (inactive)

Return insulin secretion stimulation (reported value) for this compound: O=C1OC(CN2CCOCC2)CN1/N=C/c1ccc([N+](=O)[O-])o1 (stereo unspecified) -1.4% (inactive)

----------
Experiment: CellTiter-Glo luminescent readout of SW480 viability loss, NPC library primary (AID 1117343)
Details: CellTiter-Glo luminescence; at 20 µM (top of the series) unless noted
The source made the active and inactive calls.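 The calls were made as follows: active = compounds that lower viability of the colon cancer cells in the luminescence readout, with no numeric limit stated; inactive = the rest.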
Respond using exactly one of the listed classes: active, inactive

Look up the recorded call for Cc1c(-c2ccccc2)oc2c(C(=O)OCCN3CCCCC3)cccc2c1=O in this test. inactive

Look up the recorded call for C[C@]1(Cn2ccnn2)[C@H](C(=O)O)N2C(=O)C[C@H]2S1(=O)=O in this test. inactive

Look up the recorded call for CC(=O)NCc1c(I)c(NC(C)=O)c(I)c(C(=O)O)c1I in this test. inactive

Look up the recorded call for O=C1[O][Bi][O]c2ccccc21 in this test. inactive

Look up the recorded call for CC(C)(C)C(=O)Oc1ccc(S(=O)(=O)Nc2ccccc2C(=O)NCC(=O)O)cc1 in this test. active

Look up the recorded call for FC(F)(F)c1ccccc1-n1ccnc1 in this test. inactive

Look up the recorded call for O=C(O)Cc1cccc2ccccc12 in this test. inactive

Look up the recorded call for Nc1nc(Cl)nc2c1ncn2[C@@H]1O[C@H](CO)[C@@H](O)[C@@H]1F in this test. active

Look up the recorded call for O=c1cc[nH]c(=O)[nH]1 in this test. inactive

Look up the recorded call for Cc1cc(-n2nc3ccc(Cl)cc3n2)c(O)c(C(C)(C)C)c1 in this test. inactive

Look up the recorded call for CCCCC(O)c1ccccc1 (configuration not stated) in this test. inactive

Look up the recorded call for O=C(O)c1ccc[n+]([O-])c1 in this test. inactive

----------
System: R275C/Slo1WT/beta2
Test: modulators of BK channel variants, profiling panel, selectivity assay, cell-based, U2OS BacMam, thallium flux, beta subunits (AID 1259406);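 also: initial slope of Thallos dye fluorescence rise after thallium is added; log ratio against the mean of 0.3% DMSO vehicle wells on the same plate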
Conditions: at 30 µM
Classify as follows. Reported log fold change Tl+ flux greater than or equal to 0.01: y. Reported log fold change Tl+ flux below: n.

Hello, I need to know if O=C(Nc1ccc(Oc2ccc(OC(F)(F)F)cc2)cc1)c1ccco1 has measured log fold change Tl+ flux not below 0.01. Thanks! y

Hello, I need to know if CS(=O)(=O)c1ccc(C2=C(c3ccccc3)C(=O)OC2)cc1 has measured log fold change Tl+ flux not below 0.01. Thanks! n

Hello, I need to know if C[C@H]1COc2c(N3CCN(C)CC3)c(F)cc3c(=O)c(C(=O)O)cn1c23 has measured log fold change Tl+ flux not below 0.01. Thanks! y

Hello, I need to know if COc1ccc(-c2oc3c(CC=C(C)C)c(O[C@@H]4O[C@H](CO)[C@@H](O)[C@H](O)[C@H]4O)cc(O)c3c(=O)c2O[C@@H]2O[C@@H](C)[C@H](O)[C@@H](O)[C@H]2O)cc1 has measured log fold change Tl+ flux not below 0.01. Thanks! y

Hello, I need to know if CN1CCN(C2=Nc3cc(Cl)ccc3Nc3ccccc32)CC1 has measured log fold change Tl+ flux not below 0.01. Thanks! y

Hello, I need to know if Cc1cc(NS(=O)(=O)c2ccc(N)cc2)no1 has measured log fold change Tl+ flux not below 0.01. Thanks! n

Hello, I need to know if C#C[C@]1(OC(C)=O)CC[C@H]2[C@@H]3CCC4=CC(=O)CC[C@@H]4[C@H]3CC[C@@]21C has measured log fold change Tl+ flux not below 0.01. Thanks! n

Hello, I need to know if CN(C)C(=O)C(CCN1CCC(O)(c2ccc(Cl)cc2)CC1)(c1ccccc1)c1ccccc1 has measured log fold change Tl+ flux not below 0.01. Thanks! y
